Molecular target: EBP (Homo sapiens, UniProt Q15125)
Construct: HEK293T cells were utilized as the source of EBP enzyme; endogenous in cells
Sequence (Q15125 whole entry): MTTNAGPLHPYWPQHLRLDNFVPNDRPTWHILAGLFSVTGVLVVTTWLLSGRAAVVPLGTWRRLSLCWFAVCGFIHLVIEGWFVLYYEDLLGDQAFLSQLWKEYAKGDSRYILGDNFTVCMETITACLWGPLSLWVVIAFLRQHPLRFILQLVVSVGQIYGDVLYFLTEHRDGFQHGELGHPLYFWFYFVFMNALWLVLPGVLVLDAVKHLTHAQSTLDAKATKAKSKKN
Experiment: EBP Functional Assay (EBP immunoaffinity LC-MS assay)
Conditions: HEK293T cells as source of EBP enzyme; 30 min with inhibitor, then zymosterol-d5, 37° C. for 4 h; percent conversion by LC-APCI MRM MS
Please go through the items and note down their IC50.

In: Reported IC50, compound `COc1nc(C)ccc1S(=O)(=O)N1[C@@H]2CC[C@H]1C[C@H](N1CCC(C)CC1)C2` : ____
Out: < 50 nM

In: Reported IC50, compound `CC(C)(O)CN[C@@H]1C[C@H]2CC[C@@H](C1)N2S(=O)(=O)c1ccc(OC(F)F)cc1` : ____
Out: 150 to 2000 nM

In: Reported IC50, compound COCCC1CN(C2CC3CCC(C2)N3S(=O)(=O)c2ccc(OC(F)F)cc2)C1 (centres unmarked) : ____
Out: 150 to 2000 nM

In: Reported IC50, compound O=S(=O)(c1ccc(OC(F)F)cc1)N1C2CCC1CC(N1CC3CCC(C3)C1)C2 (centres unmarked) : ____
Out: < 50 nM

In: Reported IC50, compound Cc1nc(C(F)(F)F)ccc1S(=O)(=O)N1[C@@H]2CC[C@H]1C[C@H](N1CC3(COC3)C1)C2 (single isomer, unassigned) : ____
Out: < 50 nM

In: Reported IC50, compound O=S(=O)(c1ccc(OC(F)F)cc1)N1C2CCC1CC(N[C@@H]1CCOC1)C2 (some centres unmarked) : ____
Out: 50 to 150 nM

In: Reported IC50, compound O=S(=O)(c1ccc(OC(F)F)cc1)N1C2CCC1CC(N1C3CCCC1CC3)C2 (centres unmarked) : ____
Out: 50 to 150 nM

In: Reported IC50, compound O=S(=O)(c1ccc(OC(F)F)cc1)N1C2CCC1CC(N1CC3CC(C3)C1)C2 (centres unmarked) : ____
Out: 50 to 150 nM
